B1: NELF-E aptamer (parent)
chain: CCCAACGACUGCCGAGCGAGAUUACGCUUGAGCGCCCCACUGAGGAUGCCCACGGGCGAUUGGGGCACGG

variants of: B1; test: HiTS-RAP; details: with NELF-E (Drosophila)
parameter-measured: pKd
Keep in mind that pKd stands for -log10 of concentration in molar terms.

| variant-descriptor | pKd |
| --- | --- |
| A8G G56U | 8.19 |

Prompt: Give a short answer stating reported pKd for U41G G56A .
Response: 8.24

Prompt: Complete the entry with pKd for U29A
Response: 8.34

Prompt: Write down pKd measured for item G16U G20U
Response: 8.13

Prompt: Let me know recorded pKd for A8G A19G , thanks.
Response: 8.26

Prompt: Dear colleague, please send me the reported pKd for G11U C13A when you can.
Response: 8.18

Prompt: Read the entry A4U G32A and write its reported pKd.
Response: 8.25

Prompt: Please give the documented pKd of A4U G65A
Response: 8.26

Prompt: Determine its reported pKd: G11A A39U
Response: 7.62

Prompt: Tell us which pKd value is on record for C33G U41G
Response: 8.13

// provenance: the RNAGym collection of RNA variant scans (doi:10.1038/nmeth.2970)
